# ASSAY: physchem
# ASSAY CONTEXT: fed state simulated intestinal fluid (FeSSIF), 25 °C, fessif, thermodynamic from solid
MEASUREMENT LABEL: solubility (µg/mL)
Answers are plain numbers, in µg/mL.

COMPOUND: CC(C)(C#Cc1ccc(-c2ccc(Cl)c3c(N(C(=O)CCC(=O)OCOP(=O)(O)O)S(C)(=O)=O)nn(CC(F)(F)F)c23)c([C@H](Cc2cc(F)cc(F)c2)NC(=O)Cn2nc(C(F)(F)F)c3c2C(F)(F)[C@@H]2C[C@H]32)n1)S(C)(=O)=O [Compound 28]
solubility (µg/mL): 319
--
COMPOUND: CN(CCCC(=O)N(c1nn(CC(F)(F)F)c2c(-c3ccc(C#CC(C)(C)S(C)(=O)=O)nc3[C@H](Cc3cc(F)cc(F)c3)NC(=O)Cn3nc(C(F)(F)F)c4c3C(F)(F)[C@@H]3C[C@H]43)ccc(Cl)c12)S(C)(=O)=O)C(=O)OCOP(=O)(O)O [Compound 32]
solubility (µg/mL): 210
--
COMPOUND: CC(C)(C#Cc1ccc(-c2ccc(Cl)c3c(N(C(=O)/C=C/C(=O)N[C@@H](CC(=O)O)C(=O)O)S(C)(=O)=O)nn(CC(F)(F)F)c23)c([C@H](Cc2cc(F)cc(F)c2)NC(=O)Cn2nc(C(F)(F)F)c3c2C(F)(F)[C@@H]2C[C@H]32)n1)S(C)(=O)=O [Compound 2]
solubility (µg/mL): 655

## Task What measured solubility goes with C[C@H](N)C(=O)N(c1nn(CC(F)(F)F)c2c(-c3ccc(C#CC(C)(C)S(C)(=O)=O)nc3[C@H](Cc3cc(F)cc(F)c3)NC(=O)Cn3nc(C(F)(F)F)c4c3C(F)(F)[C@@H]3C[C@H]43)ccc(Cl)c12)S(C)(=O)=O [Compound 18] ?
## Result 0.4
